- System: EKVX NSCLC
- Test description: NCI-60 one-dose screen, 48 h (100 = growth as untreated, 0 = no growth, -100 = all killed)
- Condition context: 10 µM unless noted
- Experimental: Growth inhibition of the EKVX human Non-Small Cell Lung tumor cell line is measured as a screen for anti-cancer activity. Cells are grown in 96 well plates and exposed to the test compound for 48 hours. Compounds are tested at a single concentration, which is 10^-5 M for most compounds. The reported endpoint is percent growth (GI% or GIPRCNT), where numbers from 0 - 100% represent growth inhibition, and numbers from -100% - 0 represent cell death. […]
This is part of a sample that, as a whole, favours compounds with a hit. Of some 83,000 tested, about 20% had one in any assay. Activity calls are given as the source filed them. Rule for the calls: active = growth percent below 10; inactive = the rest.
Quantity kind: growth

The compound listed as CCOC(=O)NN1CC(O)=C(c2nc(-c3ccc(Br)cc3)cs2)C1=N has a reported growth of 104% (inactive)

The compound listed as COc1cc(C(=O)/C=C/c2ccc(N3CCN(C)CC3)cc2)cc(OC)c1OC has a reported growth of 88.6% (inactive)

The compound listed as COc1ccc(-c2cc(C(=O)N3N=C(c4ccc(N)cc4)CC3c3ccccc3)c3ccccc3n2)cc1 (stereo not drawn) has a reported growth of 70.8% (inactive)

The compound listed as COc1cccc(OC)c1Oc1c(-c2nc3ccccc3s2)c(C)nn1-c1ccccc1 has a reported growth of 71.9% (inactive)

The compound listed as Cn1cc(C(=O)c2nc(-c3c[nH]c4ccc(Br)cc34)no2)c2cc(Br)ccc21 has a reported growth of 60.5% (inactive)

The compound listed as O=C(Cn1nnc2ccccc21)N/N=C/c1ccccc1F has a reported growth of 106% (inactive)

The compound listed as CCN1C(=O)N(CC)C2C1NN=c1s/c(=C\c3ccccc3Br)c(=O)n12 (stereo not drawn) has a reported growth of 47.7% (inactive)

The compound listed as Cc1cc(F)ccc1S(=O)(=O)Nc1cc(-c2c(O)ccc3ccccc23)c(O)c2ccccc12 has a reported growth of 19% (inactive)

The compound listed as CCN(CC)S(=O)(=O)c1ccc(S(=O)(=O)N2CCC[C@@H](C(=O)N3CCN(C(=O)OC(C)(C)C)CC3)C2)cc1 has a reported growth of 54.9% (inactive)

The compound listed as C[C@H]1[C@H](C)CC[C@]2(C(=O)O)CC[C@]3(C)C(=CC[C@@H]4[C@@]5(C)C[C@@H](Cc6cn([C@@H]7O[C@H](CO)[C@@H](O)[C@H](O)[C@H]7O)nn6)[C@H](O)C(C)(C)[C@@H]5CC[C@]43C)[C@H]12 has a reported growth of 96.8% (inactive)

The compound listed as CN1CCN(CCCOc2ccc3ncnc(Nc4ccc(Oc5cccc(F)c5)c(Cl)c4)c3c2)CC1 has a reported growth of 29.6% (inactive)

The compound listed as CCn1cc(C2=C(c3cn(C)c4ncccc34)C(=O)NC2=O)c2cccnc21 has a reported growth of 54.6% (inactive)

The compound listed as COc1cc(-c2nc3occn3c2-c2ccnc(NCCCNS(=O)(=O)c3ccccc3)n2)ccc1F has a reported growth of 44.7% (inactive)

The compound listed as O=C(/C=C/C12c3ccccc3C(c3ccccc31)C1C(=O)NC(=O)C12)c1ccc(F)cc1 (stereo not drawn) has a reported growth of 19.1% (inactive)

The compound listed as COc1cc(/C=C/c2cc(/C=C/c3ccc(O)c(OC)c3)n(C(=O)Nc3ccc(F)cc3)n2)ccc1O has a reported growth of 26.9% (inactive)

The compound listed as COc1ccc(C2=Nc3c/c(=C\c4c(O)[nH]c5cc(Cl)ccc45)ccc3=N2)cc1 has a reported growth of 80.7% (inactive)

The compound listed as CCN(CC)CCOc1nc2c3ccc(Cl)cc3nn2c2ccccc12 has a reported growth of 28.9% (inactive)

The compound listed as Oc1c(Cl)cc(Cl)c2ccc(Cn3cc(-c4cccc(C(F)(F)F)c4)nn3)nc12 has a reported growth of 80.1% (inactive)

The compound listed as O=C(NCc1ccc2c(c1)OCO2)NCC1CCCC(CNC(=O)NCc2ccc3c(c2)OCO3)C1 (stereo not drawn) has a reported growth of 106% (inactive)

The compound listed as COc1cc(C(=O)c2c(-c3ccccc3)oc3c(OC)cccc23)cc(OC)c1O has a reported growth of 44.9% (inactive)

The compound listed as Cc1c(Cl)cccc1C(=O)Nc1nc2c(s1)CN(C(=O)Nc1cccc(C(F)(F)F)c1)CC2 has a reported growth of 46% (inactive)

The compound listed as COc1cc(Nc2c3ccc(Cl)cc3nc3ccc(OC)cc23)c2ncccc2c1 has a reported growth of 39.2% (inactive)

The compound listed as COc1ccc2c(c1)c(-c1nonc1-c1cn(C)c3ccc(OC)cc13)cn2C has a reported growth of 47.4% (inactive)

The compound listed as CCOC(=O)c1n[nH]n2c1nc(=O)c1cnn(C)c12 has a reported growth of 102% (inactive)

The compound listed as COc1cc(C2C3=C(COC3=O)N(CCO)c3cc4c(cc32)OCCO4)cc(OC)c1OC (stereo not drawn) has a reported growth of 45.7% (inactive)

The compound listed as CCOC(=O)c1c(C)c2c(n1C)CSc1cc(S(=O)(=O)c3ccccc3)c(=O)[nH]c1-2 has a reported growth of 14.7% [100 µM] (inactive)

The compound listed as O=C(O)CCCc1cnc2c3sccc3nc(SCc3c(Cl)cccc3Cl)n12 has a reported growth of 63% (inactive)

The compound listed as O=[N+]([O-])/C(=C\c1ccco1)c1ccccc1Cl has a reported growth of 83.1% (inactive)
